Target: mTOR (Homo sapiens)
Construct: human mTOR amino acids from 1360 to 2549; purchased Invitrogen 4753; host or cells: insect cells
Sequence (P42345 1360-2549): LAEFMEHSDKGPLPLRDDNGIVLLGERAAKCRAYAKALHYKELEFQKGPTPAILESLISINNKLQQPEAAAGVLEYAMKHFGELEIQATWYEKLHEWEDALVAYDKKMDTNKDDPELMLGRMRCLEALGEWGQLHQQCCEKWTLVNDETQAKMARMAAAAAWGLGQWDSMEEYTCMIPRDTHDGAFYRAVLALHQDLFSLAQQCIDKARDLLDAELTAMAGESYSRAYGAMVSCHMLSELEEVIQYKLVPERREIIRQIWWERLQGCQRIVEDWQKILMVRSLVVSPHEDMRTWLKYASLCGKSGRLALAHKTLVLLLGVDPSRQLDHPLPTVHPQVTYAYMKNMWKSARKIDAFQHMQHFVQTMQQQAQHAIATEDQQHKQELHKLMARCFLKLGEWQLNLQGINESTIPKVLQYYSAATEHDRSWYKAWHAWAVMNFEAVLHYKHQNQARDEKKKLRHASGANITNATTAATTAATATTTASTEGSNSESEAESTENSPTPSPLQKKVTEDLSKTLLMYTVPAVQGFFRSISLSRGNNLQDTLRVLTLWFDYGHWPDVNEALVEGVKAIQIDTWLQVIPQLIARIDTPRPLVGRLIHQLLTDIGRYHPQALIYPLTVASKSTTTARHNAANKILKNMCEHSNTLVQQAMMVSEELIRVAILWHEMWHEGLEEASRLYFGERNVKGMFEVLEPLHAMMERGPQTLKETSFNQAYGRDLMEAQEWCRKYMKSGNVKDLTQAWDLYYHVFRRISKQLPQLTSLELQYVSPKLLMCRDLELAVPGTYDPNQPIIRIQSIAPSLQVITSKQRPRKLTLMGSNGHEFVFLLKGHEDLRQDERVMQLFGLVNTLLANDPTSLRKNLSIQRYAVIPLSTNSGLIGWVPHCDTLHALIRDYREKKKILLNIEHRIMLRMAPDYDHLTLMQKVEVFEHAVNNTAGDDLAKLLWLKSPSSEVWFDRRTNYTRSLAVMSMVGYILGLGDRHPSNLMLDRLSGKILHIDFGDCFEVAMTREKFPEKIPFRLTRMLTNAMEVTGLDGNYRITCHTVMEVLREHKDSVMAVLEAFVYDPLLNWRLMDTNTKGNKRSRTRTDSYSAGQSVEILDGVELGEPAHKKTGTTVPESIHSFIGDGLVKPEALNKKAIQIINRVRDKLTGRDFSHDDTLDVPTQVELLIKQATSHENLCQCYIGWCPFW
Assay: mTOR kinase assay (TR-FRET, for comparative purposes)
Assay type: biochemical
Conditions: read-out: mTOR % inhibition @ 1 μM, mean inhibition at 1 μM test compound, 40 μM ATP
Where a name gives a salt, the structure may show the parent alone.
List of inhibition at 1 µM values.

Sample answers from the record:
{"MOLECULE": "COc1cc(C)cc2cc(-c3c(CO)c(Cl)n4ncnc(N)c34)sc12", "ASSAYED TARGET": "mTOR (Homo sapiens)", "VALUE TYPE": "inhibition at 1 µM", "TEST VALUE": "14.7%"}
{"MOLECULE": "COc1cc(C)cc2cc(-c3c(CN4CCNC(=O)C4)c(C#N)n4ncnc(N)c34)sc12", "ASSAYED TARGET": "mTOR (Homo sapiens)", "VALUE TYPE": "inhibition at 1 µM", "TEST VALUE": "0.1%"}
{"MOLECULE": "CCOCc1c(-c2cc3cc(C)cc(OC)c3s2)c2c(N)ncnn2c1CN[C@H]1CCNC1=O", "ASSAYED TARGET": "mTOR (Homo sapiens)", "VALUE TYPE": "inhibition at 1 µM", "TEST VALUE": "12.5%"}
{"MOLECULE": "COc1cc(C)cc2cc(-c3c(CN4CCNC(=O)C4)c(C)n4ncnc(N)c34)sc12", "ASSAYED TARGET": "mTOR (Homo sapiens)", "VALUE TYPE": "inhibition at 1 µM", "TEST VALUE": "8.5%"}
{"MOLECULE": "COc1cc(C)cc2cc(-c3c(COCCN)c(CN4CCNCC4)n4ncnc(N)c34)sc12 [Example 30, trihydrochloride]", "ASSAYED TARGET": "mTOR (Homo sapiens)", "VALUE TYPE": "inhibition at 1 µM", "TEST VALUE": "21.1%"}

Entry COCc1c(-c2cc3cc(C)cc(OC)c3s2)c2c(N)ncnn2c1CN1CCN(C(C)=O)CC1 [Example 16, dihydrochloride] — recorded inhibition at 1 µM = 36.9%

Entry COc1cc(C)cc2cc(-c3c(COCC(N)=O)c(CN4CCN(C(C)=O)CC4)n4ncnc(N)c34)sc12 — recorded inhibition at 1 µM = 25.9%

Entry COc1cc(C)cc2cc(-c3c(CNCC(C)(C)O)c(CN4CCOCC4)n4ncnc(N)c34)sc12 — recorded inhibition at 1 µM = 1.7%
